# MEASURED_ON: FIH (Homo sapiens (Human), UniProt Q9NWT6)
# Sequence (Q9NWT6 whole entry): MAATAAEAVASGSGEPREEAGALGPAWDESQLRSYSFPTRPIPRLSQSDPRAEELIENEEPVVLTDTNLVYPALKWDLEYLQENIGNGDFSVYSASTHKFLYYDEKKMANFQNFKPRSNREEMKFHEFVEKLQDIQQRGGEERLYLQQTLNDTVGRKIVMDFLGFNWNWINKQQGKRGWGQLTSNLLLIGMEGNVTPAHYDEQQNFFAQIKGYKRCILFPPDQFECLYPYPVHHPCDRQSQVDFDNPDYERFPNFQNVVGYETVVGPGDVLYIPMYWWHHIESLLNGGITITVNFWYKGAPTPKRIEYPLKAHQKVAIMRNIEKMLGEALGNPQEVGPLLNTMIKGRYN
# EXPERIMENTAL_DETAILS: Inhibitory activities of compounds on FIH, fluorescence polarization (FP assay)
# Type: binding
# DETAILS: FP competition with FITC-HIF-1α 788-822; Table 1; read-out: FIH IC50
QUANTITY_MEASURED: IC50 (µM)

Name the reported IC50 value associated with the compound "CC(C)(C)c1cccc(-c2cc(-c3cnc(C(=O)NCC(=O)O)c(O)c3)on2)c1"
0.782

Name the reported IC50 value associated with the compound "O=C(O)CNC(=O)c1ncc(-c2onc(-c3ccccc3)c2C2CCCCC2)cc1O"
0.998

Name the reported IC50 value associated with the compound "O=C(O)CNC(=O)c1ncc(-c2onc(-c3ccccc3)c2-c2ccccc2)cc1O"
0.787

Name the reported IC50 value associated with the compound "CC(C)(C)c1c(-c2ccccc2)noc1-c1cnc(C(=O)NCC(=O)O)c(O)c1"
1.21

Name the reported IC50 value associated with the compound "Cc1c(-c2ccccc2)noc1-c1cnc(C(=O)NCC(=O)O)c(O)c1"
1.01

1. O=C(O)CNC(=O)c1ncc(-c2cc(-c3ccccc3F)no2)cc1O
2. O=C(O)CNC(=O)c1ncc(-c2cc(-c3ccc(F)cc3)no2)cc1O
Form: Entry with minimum IC50 (choose one): 1 / 2 Give the label under which the chosen entry appears.
2

A. O=C(O)CNC(=O)c1ncc(-c2onc(-c3ccccc3)c2C2CC2)cc1O
B. Cc1nc(C(=O)NCC(=O)O)c(O)cc1-c1cc(-c2ccccc2)no1
Form: Entry with minimum IC50 (choose one): A / B Give the label under which the chosen entry appears.
B
(B: 0.991 µM, A: 1.92 µM)

---

# Test system: HepG2 cell
# EXPERIMENTAL_DETAILS: Cellular lipid-lowering level detection (oleic acid-induced cellular hyperlipidemia model, triglyceride content)
# Type: cell-based, human
# DETAILS: HepG2 cells, drug treatment 24 h
QUANTITY_MEASURED: Whether or not it can improve cellular hyperlipidemia

Name the reported Whether or not it can improve cellular hyperlipidemia value associated with the molecule "O=C(O)CNC(=O)c1ncc(-c2cc(-c3ccccc3C(F)(F)F)no2)cc1O"
Yes

Name the reported Whether or not it can improve cellular hyperlipidemia value associated with the molecule "N#Cc1cccc(-c2cc(-c3cnc(C(=O)NCC(=O)O)c(O)c3)on2)c1"
Yes

Name the reported Whether or not it can improve cellular hyperlipidemia value associated with the molecule "O=C(O)CNC(=O)c1ncc(-c2cc(-c3ccc(-c4ccccc4)cc3)no2)cc1O"
Yes

Name the reported Whether or not it can improve cellular hyperlipidemia value associated with the molecule "COc1cccc(-c2cc(-c3cnc(C(=O)NCC(=O)O)c(O)c3)on2)c1"
Yes

Name the reported Whether or not it can improve cellular hyperlipidemia value associated with the molecule "O=C(O)CNC(=O)c1ncc(-c2cc(-c3ccc4ccccc4c3)no2)cc1O"
Yes

***
Name the reported Whether or not it can improve cellular hyperlipidemia value associated with the molecule "O=C(O)CNC(=O)c1ncc(-c2onc(-c3ccccc3)c2C2CCCCC2)cc1O"
Yes

Name the reported Whether or not it can improve cellular hyperlipidemia value associated with the molecule "O=C(O)CNC(=O)c1ncc(-c2cc(-c3ccc(Br)cc3)no2)cc1O"
Yes

Name the reported Whether or not it can improve cellular hyperlipidemia value associated with the molecule "O=C(O)CNC(=O)c1ncc(-c2cc(-c3cc(F)cc(F)c3)no2)cc1O"
Yes

---

# MEASURED_ON: FIH (Homo sapiens (Human), UniProt Q9NWT6)
# EXPERIMENTAL_DETAILS: Inhibitory activities of compounds on FIH, fluorescence polarization (FP assay)
# Type: binding
# DETAILS: Table 2, comparison compounds; read-out: FIH (IC50 nM), compound where position 5 of pyridine is linked to other structures
QUANTITY_MEASURED: IC50 (nM)

Name the reported IC50 value associated with the compound O=C(O)CNC(=O)c1ncc(-c2cn(-c3ccccc3)nn2)cc1O [reference compound]
19600

P. O=C(O)CNC(=O)c1ncc(-c2cc(-c3ccccc3)co2)cc1O [reference compound]
Q. O=C(O)CNC(=O)c1ncc(-c2cc(-c3ccccc3)n[nH]2)cc1O [reference compound]
// compare measured IC50, left P , right Q , return larger Give the label under which the chosen entry appears.
Q
(Q: 22300 nM, P: 9020 nM)

---

# Tested on: HepG2 cell
# EXPERIMENTAL_DETAILS: Cellular lipid-lowering level detection (oleic acid-induced cellular hyperlipidemia model, triglyceride content)
# Format: cell-based, human
# DETAILS: HepG2 cells, drug treatment 24 h
QUANTITY_MEASURED: Whether or not it can improve cellular hyperlipidemia

Below: 10 compounds and their reported Whether or not it can improve cellular hyperlipidemia.
Name the reported Whether or not it can improve cellular hyperlipidemia value associated with the compound O=C(O)CNC(=O)c1ncc(-c2cccc(Cl)c2)cc1O [AKB-6548, reference compound]
No

Name the reported Whether or not it can improve cellular hyperlipidemia value associated with the compound O=C(O)CNC(=O)c1ncc(-c2cc(-c3ccc(C(F)(F)F)cc3)no2)cc1O [Compound I-23]
Yes

Name the reported Whether or not it can improve cellular hyperlipidemia value associated with the compound Cc1ccccc1-c1cc(-c2cnc(C(=O)NCC(=O)O)c(O)c2)on1 [Compound I-13]
Yes

Name the reported Whether or not it can improve cellular hyperlipidemia value associated with the compound O=C(O)CNC(=O)c1ncc(-c2cc(-c3cccc(C(F)(F)F)c3)no2)cc1O [Compound I-10]
Yes

Name the reported Whether or not it can improve cellular hyperlipidemia value associated with the compound O=C(O)CNC(=O)c1ncc(-c2onc(-c3ccccc3)c2-c2ccccc2)cc1O [Compound I-33]
Yes

Name the reported Whether or not it can improve cellular hyperlipidemia value associated with the compound O=C(O)CNC(=O)c1ncc(-c2cc(-c3cccc(Br)c3)no2)cc1O [Compound I-6]
Yes

Name the reported Whether or not it can improve cellular hyperlipidemia value associated with the compound O=C(O)CNC(=O)c1ncc(-c2cc(-c3cccc4ccccc34)no2)cc1O [Compound I-11]
Yes

Name the reported Whether or not it can improve cellular hyperlipidemia value associated with the compound O=C(O)CNC(=O)c1ncc(-c2cc(-c3cc(Cl)cc(Cl)c3)no2)cc1O [Compound I-19]
Yes

Name the reported Whether or not it can improve cellular hyperlipidemia value associated with the compound CC(C)(C)c1cccc(-c2cc(-c3cnc(C(=O)NCC(=O)O)c(O)c3)on2)c1 [Compound I-27]
Yes

Name the reported Whether or not it can improve cellular hyperlipidemia value associated with the compound O=C(O)CNC(=O)c1ncc(-c2cc(-c3ccc(Cl)cc3)no2)cc1O [Compound I-18]
Yes

***
Name the reported Whether or not it can improve cellular hyperlipidemia value associated with the compound Cc1nc(C(=O)NCC(=O)O)c(O)cc1-c1cc(-c2ccccc2)no1 [Compound I-28]
Yes

Name the reported Whether or not it can improve cellular hyperlipidemia value associated with the compound Cc1ccc(-c2cc(-c3cnc(C(=O)NCC(=O)O)c(O)c3)on2)cc1 [Compound I-14]
Yes

Name the reported Whether or not it can improve cellular hyperlipidemia value associated with the compound O=C(O)CNC(=O)c1ncc(-c2onc(-c3ccccc3)c2C2CC2)cc1O [Compound I-31]
Yes

Name the reported Whether or not it can improve cellular hyperlipidemia value associated with the compound O=C(O)CNC(=O)c1ncc(-c2cc(-c3ccccc3Cl)no2)cc1O [Compound I-17]
Yes

Name the reported Whether or not it can improve cellular hyperlipidemia value associated with the compound O=C(O)CNC(=O)c1ncc(-c2cc(C3CCCCC3)no2)cc1O [Compound I-7]
Yes

Name the reported Whether or not it can improve cellular hyperlipidemia value associated with the compound O=C(O)CNC(=O)c1ncc(-c2cc(-c3ccc(F)cc3)no2)cc1O [Compound I-25]
Yes

Name the reported Whether or not it can improve cellular hyperlipidemia value associated with the compound CC(C)(C)c1c(-c2ccccc2)noc1-c1cnc(C(=O)NCC(=O)O)c(O)c1 [Compound I-30]
Yes

Name the reported Whether or not it can improve cellular hyperlipidemia value associated with the compound Cc1cc(C)cc(-c2cc(-c3cnc(C(=O)NCC(=O)O)c(O)c3)on2)c1 [Compound I-15]
Yes

Name the reported Whether or not it can improve cellular hyperlipidemia value associated with the compound O=C(O)CNC(=O)c1ncc(-c2cc(-c3cccc(F)c3)no2)cc1O [Compound I-16]
Yes

Name the reported Whether or not it can improve cellular hyperlipidemia value associated with the compound O=C(O)CNC(=O)c1ncc(-c2cc(-c3cccc(Cl)c3)no2)cc1O [Compound I-5]
Yes

Name the reported Whether or not it can improve cellular hyperlipidemia value associated with the compound O=C(O)CNC(=O)c1ncc(-c2cc(-c3ccccc3F)no2)cc1O [Compound I-24]
Yes
